Target under test: ALK (Homo sapiens)
Construct: host or cells: baculovirus expression system
Sequence (Q9UM73 19-1620): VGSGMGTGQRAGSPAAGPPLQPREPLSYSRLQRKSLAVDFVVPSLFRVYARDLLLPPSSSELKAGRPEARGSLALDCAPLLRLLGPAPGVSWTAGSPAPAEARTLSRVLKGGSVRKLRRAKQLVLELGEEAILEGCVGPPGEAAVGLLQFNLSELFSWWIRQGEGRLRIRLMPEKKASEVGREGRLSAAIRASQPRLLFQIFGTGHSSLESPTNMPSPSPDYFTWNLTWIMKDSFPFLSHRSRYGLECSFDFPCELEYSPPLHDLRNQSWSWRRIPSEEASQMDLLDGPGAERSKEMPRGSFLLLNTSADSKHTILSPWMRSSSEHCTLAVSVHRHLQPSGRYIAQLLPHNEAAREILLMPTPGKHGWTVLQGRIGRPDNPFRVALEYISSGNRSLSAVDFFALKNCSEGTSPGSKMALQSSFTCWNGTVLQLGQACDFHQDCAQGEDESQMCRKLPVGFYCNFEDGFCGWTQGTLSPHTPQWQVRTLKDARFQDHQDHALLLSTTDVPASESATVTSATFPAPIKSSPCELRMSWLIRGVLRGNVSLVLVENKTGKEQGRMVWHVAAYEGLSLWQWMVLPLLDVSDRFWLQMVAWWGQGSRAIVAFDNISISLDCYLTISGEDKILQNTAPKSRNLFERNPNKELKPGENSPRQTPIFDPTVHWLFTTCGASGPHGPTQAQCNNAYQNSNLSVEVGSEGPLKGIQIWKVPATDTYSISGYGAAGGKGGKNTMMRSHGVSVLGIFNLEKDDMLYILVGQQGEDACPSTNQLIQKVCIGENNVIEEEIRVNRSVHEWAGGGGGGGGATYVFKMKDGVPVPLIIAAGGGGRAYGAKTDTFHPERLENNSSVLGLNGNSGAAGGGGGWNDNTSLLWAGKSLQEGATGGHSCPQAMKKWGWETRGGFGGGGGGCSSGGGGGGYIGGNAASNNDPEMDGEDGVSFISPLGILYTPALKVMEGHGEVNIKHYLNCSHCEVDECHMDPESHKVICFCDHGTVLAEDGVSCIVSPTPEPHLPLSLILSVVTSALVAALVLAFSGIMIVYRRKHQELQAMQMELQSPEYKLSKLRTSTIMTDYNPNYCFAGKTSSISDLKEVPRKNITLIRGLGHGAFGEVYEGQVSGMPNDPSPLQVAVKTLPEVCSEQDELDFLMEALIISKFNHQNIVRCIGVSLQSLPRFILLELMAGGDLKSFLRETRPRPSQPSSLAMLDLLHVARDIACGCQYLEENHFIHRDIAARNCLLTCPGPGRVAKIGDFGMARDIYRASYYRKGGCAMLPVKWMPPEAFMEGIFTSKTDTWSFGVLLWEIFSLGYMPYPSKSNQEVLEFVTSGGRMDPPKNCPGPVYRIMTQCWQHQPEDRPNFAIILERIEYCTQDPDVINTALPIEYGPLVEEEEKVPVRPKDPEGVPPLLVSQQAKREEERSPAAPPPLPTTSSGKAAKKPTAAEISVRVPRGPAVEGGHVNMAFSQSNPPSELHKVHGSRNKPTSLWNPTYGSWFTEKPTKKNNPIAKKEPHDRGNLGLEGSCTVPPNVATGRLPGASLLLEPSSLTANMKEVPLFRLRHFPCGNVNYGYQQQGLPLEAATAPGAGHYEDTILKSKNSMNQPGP
Protocol notes: ALK Kinase Assay (ELISA/TRF, PLC-γ substrate)
Assay type: biochemical
Assay context: ALK kinase inhibition, 1 μM ATP; read-out: ALK Potency
Description: Briefly, each 96-well plate was coated with […] of 10 μg/mL substrate (phospholipase C-γ) in Tris-buffered saline (TBS). […] The reaction was initiated by adding enzyme (30 ng/ml ALK) and was allowed to proceed at 37° C. for 15 minutes. Detection of the phosphorylated product was performed by adding 100 μl/well of Eu—N1 labeled PT66 antibody (Perkin Elmer # AD0041). Data analysis was performed using ActivityBase (IDBS, Guilford, UK). […]
Reported values of IC50 for individual entries

Example results:
| Mol | Observed measurement |
| --- | --- |
| COc1ccccc1-c1ccc2cnc(Nc3ccc4c(c3)ncn4CCN3CCOCC3)nn12 | 100 to 1000 nM |
| C[C@H](O)CN1CCC(c2ccc(Nc3ncc4ccc(-c5cccc(NS(C)(=O)=O)c5)n4n3)cc2)CC1 | < 100 nM |
| CS(=O)(=O)Nc1cccc(-c2ccc3cnc(Nc4ccc(C5CCN(CC(N)=O)CC5)cc4)nn23)c1 | 100 to 1000 nM |
| COc1cc(C2CCN(CC(N)=O)CC2)ccc1Nc1ncc2ccc(-c3ccccc3OC)n2n1 | < 100 nM |
| COc1ccccc1-c1cc(O)c2cnc(Nc3ccc(C4CCN(CC(N)=O)CC4)cc3)nn12 | 100 to 1000 nM |

Problem: Jot down IC50 (ALK (Homo sapiens)) of `CC(C)(C)NS(=O)(=O)c1cccc(-c2ccc3cnc(Nc4ccc5[nH]ncc5c4)nn23)c1` .
Result: 1000 to 10000 nM

Problem: Fetch value of IC50 on ALK (Homo sapiens) for `COc1cc(Cn2ccnc2C)ccc1Nc1ncc2ccc(-c3ccccc3OC)n2n1` .
Result: < 100 nM

Problem: Report value: IC50, system: ALK (Homo sapiens), compound: `Cc1nc2ccc(Nc3ncc4ccc(-c5cccc(S(=O)(=O)NC(C)(C)C)c5)n4n3)cc2s1`
Result: > 10000 nM

Problem: State IC50 on ALK (Homo sapiens). Entry: `CCN(CC)C1CCN(c2ccc(Nc3ncc4ccc(-c5ccccc5OC)n4n3)cc2)CC1`
Result: < 100 nM
